Give cAMP Emax for every item shown.
Study System: human glucagon-like peptide-1 (GLP-1) receptor (human, UniProt P43220 24-463)
Protocol Details: cell-based or functional assay
*1 amine or outer side, *2 acyl side, *3 side chain or, on linkers, in order; H or OH if unused. Where no end group is shown, it is not given here. Side-chain parts run from the residue outwards. [ ]: non-standard residue; d: D form. The star is where a group is joined. αMePhe(2-F) = C[C@](N)(Cc1ccccc1F)C(=O)O; γGlu = O=C(O)[C@H](CCC(=O)[*:2])N[*:1]; C14 diacid = O=C(O)CCCCCCCCCCCCC(=O)*; εLys = N[C@@H](CCCCN[*:1])C(=O)[*:2]; αMeY = C[C@](N)(Cc1ccc(O)cc1)C(=O)O; αMeF = C[C@](N)(Cc1ccccc1)C(=O)O; αMeL = CC(C)C[C@](C)(N)C(=O)O; Orn = NCCC[C@H](N)C(=O)O; AEEA = NCCOCCOCC(=O)O; Aib = CC(C)(N)C(=O)O
Answers are plain numbers, in %.

Would you be so kind as to report cAMP Emax for each listed record?
1. YXEGTXTSDXXIXLDXKAQXEFIXXLIEGGKSSGAPPPS (Aib2, αMeF(2F)6, 4Pal10, Tle11, αMeL13, Orn16, K17(Z), Aib20, D-Glu24, αMeY25, K31(Z), C-terminal NH2; Z = AEEA2-(γ-Glu)-CO-(CH2)12-CO2H) [Example 202]
2. YXEGTXTSDXSIXLDXKAQXEFIXXLIEGGPSSGAPPPSK (Aib2, αMeF(2F)6, 4Pal10, αMeL13, Orn16, K17(Z), Aib20, D-Glu24, αMeY25, K40(Z), C-terminal NH2; Z = AEEA2-CO-(CH2)12-CO2H) [Example 221]
3. YXEGTXTSDXSIXLDXKAQXEXIXXLIEGGKSSGAPPPS (Aib2, αMeF6, 4Pal10, αMeL13, Orn16, K17(Z), Aib20, αMeF22, D-Glu24, αMeF25, K31(Z), C-terminal NH2; Z = AEEA2-(γ-Glu)-CO-(CH2)10-CH3) [Example 174]
4. YXEGTXTSDXSIXLDXIAQXKFIXXLIKGGPSSGAPPPS (Aib2, αMeF(2F)6, 4Pal10, αMeL13, Orn16, Aib20, K21(Z), D-Glu24, αMeY25, K28(Z), C-terminal NH2; Z = AEEA2-(γ-Glu)-(4-(4-tert-butylphenyl)butanoyl)) [Example 204]
5. YXEGTXTSDXXIXLDXKAQXEFIKXLIEGGPSSGAPPPS (Aib2, αMeF(2F)6, 4Pal10, αMeS11, αMeL13, Orn16, K17(Z), Aib20, K24(Z), αMeY25, C-terminal NH2; Z = AEEA2-(γ-Glu)-CO-(CH2)12-CO2H) [Example 214]
6. Y[Aib]EGT[αMePhe(2-F)]TSDV[Aib]I[αMeL]LD[Orn]K([AEEA-AEEA-εLys-C14 diacid])AQ[Aib]EFI[dE][αMeY]LIEGGK([AEEA-AEEA-εLys-C14 diacid])SSGAPPPS-NH2 [Example 163]

[92.2, 83, 98.2, 126, 93.2, 86.3]

Would you be so kind as to report cAMP Emax for each listed record?
1. Y[Aib]EGT[αMePhe(2-F)]TSDV[Aib]I[αMeL]LD[Orn]K([AEEA-AEEA-εLys-C14 diacid])AQ[Aib]EFIK([AEEA-AEEA-εLys-C14 diacid])[αMeY]LIEGGPSSGAPPPS-NH2 [Example 166]
2. YXEGTXTSDXSIXLDXIAQXKFIKXLIEGGPSSGAPPPS (Aib2, αMeF(2F)6, 4Pal10, αMeL13, Orn16, Aib20, K21(Z), K24(Z), αMeY25, C-terminal NH2; Z = AEEA2-CO-(CH2)12-CO2H) [Example 191]
3. Y[Aib]EGT[αMePhe(2-F)]TSDV[Aib]I[αMeL]LD[Orn]K([εLys-γGlu-C14 diacid])AQ[Aib]EFIK([εLys-γGlu-C14 diacid])[αMeY]LIEGGPSSGAPPPS-NH2 [Example 167]
4. Y[Aib]EGT[αMeF]TSDV[Aib]I[αMeL]LD[Orn]K([AEEA-AEEA-γGlu-C14 diacid])AQ[Aib]EFIK([AEEA-AEEA-γGlu-C14 diacid])[αMeY]LIEGGKSSGAPPPS-NH2 (not fully specified) [Example 182]
5. YXEGTXTSDXSIXLDXIAQXEFIKXLIEGGPSSGAPPPSK (Aib2, αMeF(2F)6, 4Pal10, αMeL13, Orn16, Aib20, K24(Z), αMeY25, K40(Z), C-terminal NH2; Z = AEEA2-CO-(CH2)12-CO2H) [Example 194]
6. YXEGTXTSDXSIXLDXKAQXEFIXXLIKGGPSSGAPPPS (Aib2, αMeF(2F)6, OMeY10, αMeL13, Orn16, K17(Z), Aib20, D-Glu24, αMeY25, K28(Z), C-terminal NH2; Z = AEEA2-CO-(CH2)12-CO2H) [Example 266]
7. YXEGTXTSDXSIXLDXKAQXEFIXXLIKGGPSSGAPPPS (Aib2, αMeF(2F)6, 4Pal10, αMeL13, Orn16, K17(Z), Aib20, D-Glu24, αMeY25, K28(Z), C-terminal NH2; Z = AEEA3-(γ-Glu)-CO-(CH2)12-CO2H) [Example 224]
8. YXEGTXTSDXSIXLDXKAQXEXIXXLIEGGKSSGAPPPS (Aib2, αMeF6, 4Pal10, αMeL13, Orn16, K17(Z), Aib20, αMeF22, D-Glu24, αMeY25, K31(Z), C-terminal NH2; Z = AEEA2-(γ-Glu)-CO-(CH2)10-CH3) [Example 173]

1: 90.3; 2: 98.6; 3: 91.4; 4: 96.9; 5: 103; 6: 90.5; 7: 88.4; 8: 89.9

Would you be so kind as to report cAMP Emax for each listed record?
1. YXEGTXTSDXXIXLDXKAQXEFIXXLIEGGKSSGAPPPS (Aib2, αMeF(2F)6, 4Pal10, Ac5c11, αMeL13, Orn16, K17(Z), Aib20, D-Glu24, αMeY25, K31(Z), C-terminal NH2; Z = AEEA2-(γ-Glu)-CO-(CH2)12-CO2H) [Example 211]
2. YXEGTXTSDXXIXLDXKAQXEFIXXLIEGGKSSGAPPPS (Aib2, αMeF(2F)6, 4Pal10, Dap11, αMeL13, Orn16, K17(Z), Aib20, D-Glu24, αMeY25, K31(Z), C-terminal NH2; Z = AEEA2-(γ-Glu)-CO-(CH2)12-CO2H) [Example 199]

93.1
96.7

Would you be so kind as to report cAMP Emax for each listed record?
1. YXEGTXTSDVSIXLDXKAQXEFIXXLIEGGKSSGAPPPS (Aib2, αMeF6, αMeL13, Orn16, K17(Z), Aib20, D-Glu24, αMeY25, K31(Z), C-terminal NH2; Z = AEEA2-(γ-Glu)-CO-(CH2)12-CO2H) [Example 179]
2. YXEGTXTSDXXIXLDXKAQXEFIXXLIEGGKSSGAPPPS (Aib2, αMeF(2F)6, 4Pal10, αMeS11, αMeL13, Orn16, K17(Z), Aib20, D-Glu24, αMeY25, K31(Z), C-terminal NH2; Z = AEEA2-(γ-Glu)-CO-(CH2)12-CO2H) [Example 213]
3. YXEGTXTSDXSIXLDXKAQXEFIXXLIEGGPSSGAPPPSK (Aib2, αMeF(2F)6, 2Nal10, αMeL13, Orn16, K17(Z), Aib20, D-Glu24, αMeY25, K40(Z), C-terminal NH2; Z = AEEA2-CO-(CH2)12-CO2H) [Example 257]
4. YXEGTXTSDXSIXLDXKAQXEFIEXLIEGGKSSGAPPPS (Aib2, αMeF(2F)6, 4Pal10, αMeL13, Orn16, K17(Z), Aib20, αMeF25, K31(Z), C-terminal NH2; Z = AEEA2-(γ-Glu)-CO-(CH2)12-CO2H) [Example 159]
5. YXEGTXTSDYXIXLDXKAQXEFIXXLIEGGKSSGAPPPS (Aib2, αMeF(2F)6, Dap11, αMeL13, Orn16, K17(Z), Aib20, D-Glu24, αMeY25, K31(Z), C-terminal NH2; Z = AEEA2-(γ-Glu)-CO-(CH2)12-CO2H) [Example 200]

99
94.8
82
89.4
93.7
